Molecular target: VEGFR3 (Homo sapiens, UniProt P35916)
Sequence (P35916 25-1363, species assumed): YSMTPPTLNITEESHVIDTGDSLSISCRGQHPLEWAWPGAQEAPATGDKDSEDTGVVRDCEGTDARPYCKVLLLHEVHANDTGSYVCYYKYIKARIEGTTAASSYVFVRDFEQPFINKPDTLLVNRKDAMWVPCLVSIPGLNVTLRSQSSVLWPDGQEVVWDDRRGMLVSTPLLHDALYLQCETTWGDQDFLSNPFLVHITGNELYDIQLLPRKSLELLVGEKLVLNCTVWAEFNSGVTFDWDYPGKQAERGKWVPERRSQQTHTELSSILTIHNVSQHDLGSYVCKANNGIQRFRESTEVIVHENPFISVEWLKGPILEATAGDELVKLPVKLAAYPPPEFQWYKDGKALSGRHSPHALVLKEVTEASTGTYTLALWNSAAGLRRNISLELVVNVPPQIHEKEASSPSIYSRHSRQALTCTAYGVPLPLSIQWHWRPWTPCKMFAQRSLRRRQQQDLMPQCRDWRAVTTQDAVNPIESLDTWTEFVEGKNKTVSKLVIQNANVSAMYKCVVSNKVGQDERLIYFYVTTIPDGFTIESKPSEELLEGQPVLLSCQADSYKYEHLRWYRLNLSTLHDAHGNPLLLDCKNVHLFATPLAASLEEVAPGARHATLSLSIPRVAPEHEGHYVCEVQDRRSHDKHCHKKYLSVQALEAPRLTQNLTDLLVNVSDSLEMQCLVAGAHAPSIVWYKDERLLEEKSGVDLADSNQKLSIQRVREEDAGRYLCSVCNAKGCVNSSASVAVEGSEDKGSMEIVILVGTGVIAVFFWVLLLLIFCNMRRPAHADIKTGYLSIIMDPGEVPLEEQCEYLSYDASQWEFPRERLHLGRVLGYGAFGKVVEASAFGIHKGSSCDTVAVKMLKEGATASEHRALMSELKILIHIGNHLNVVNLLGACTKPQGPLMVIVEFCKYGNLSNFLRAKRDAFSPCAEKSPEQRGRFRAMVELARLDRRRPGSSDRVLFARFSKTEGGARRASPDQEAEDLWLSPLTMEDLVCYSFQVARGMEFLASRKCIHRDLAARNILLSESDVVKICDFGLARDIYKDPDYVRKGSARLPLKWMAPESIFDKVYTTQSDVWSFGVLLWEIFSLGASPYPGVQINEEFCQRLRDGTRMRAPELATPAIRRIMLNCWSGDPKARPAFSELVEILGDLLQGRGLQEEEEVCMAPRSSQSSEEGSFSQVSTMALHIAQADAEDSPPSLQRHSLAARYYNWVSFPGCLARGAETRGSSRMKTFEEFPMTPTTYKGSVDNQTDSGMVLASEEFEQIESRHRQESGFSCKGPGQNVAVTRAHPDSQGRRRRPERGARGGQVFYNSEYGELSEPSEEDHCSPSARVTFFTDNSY
measured_attribute: IC50 (nM)
Write it as a number; the unit nM goes unstated.

Hey, VEGFR3 (Homo sapiens, UniProt P35916) data for CCCCC(C)C(=O)Nc1ccc2[nH]c3c(=O)[nH]cc(CC(=O)NC)c3c2c1 (stereo not shown) [Compound XIIIh] : IC50 came out at 594

###

Molecular target: FGFR1 (Homo sapiens)
Sequence (P11362 22-822, species assumed): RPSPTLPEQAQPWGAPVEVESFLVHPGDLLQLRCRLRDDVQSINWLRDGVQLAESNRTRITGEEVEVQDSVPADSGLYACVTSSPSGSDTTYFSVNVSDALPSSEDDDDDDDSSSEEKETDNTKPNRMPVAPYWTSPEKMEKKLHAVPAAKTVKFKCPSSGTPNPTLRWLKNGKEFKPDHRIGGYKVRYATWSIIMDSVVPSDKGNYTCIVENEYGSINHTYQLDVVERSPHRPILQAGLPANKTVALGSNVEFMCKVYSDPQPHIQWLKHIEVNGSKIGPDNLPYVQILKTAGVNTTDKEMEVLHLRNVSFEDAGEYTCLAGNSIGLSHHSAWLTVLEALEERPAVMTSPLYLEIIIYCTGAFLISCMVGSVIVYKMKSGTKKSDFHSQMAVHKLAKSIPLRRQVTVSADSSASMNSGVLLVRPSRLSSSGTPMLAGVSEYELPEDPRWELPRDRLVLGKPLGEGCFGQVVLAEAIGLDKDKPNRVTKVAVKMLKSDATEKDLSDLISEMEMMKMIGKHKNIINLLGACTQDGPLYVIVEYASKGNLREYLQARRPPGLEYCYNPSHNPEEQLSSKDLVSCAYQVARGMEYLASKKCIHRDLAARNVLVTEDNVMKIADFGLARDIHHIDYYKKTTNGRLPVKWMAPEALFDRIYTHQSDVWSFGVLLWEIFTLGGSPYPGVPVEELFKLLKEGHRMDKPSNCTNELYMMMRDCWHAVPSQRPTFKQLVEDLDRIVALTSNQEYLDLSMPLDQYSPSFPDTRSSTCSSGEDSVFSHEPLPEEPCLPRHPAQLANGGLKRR
measured_attribute: pIC50
Quick note: pIC50 means taking -log10 of the concentration in moles per liter.

response.value for CCCCC(C)C(=O)Nc1ccc2[nH]c3c(=O)[nH]cc(CC(=O)NC)c3c2c1 (stereo not shown) (field: pIC50) = 5.60

###

Protein target, amino acids: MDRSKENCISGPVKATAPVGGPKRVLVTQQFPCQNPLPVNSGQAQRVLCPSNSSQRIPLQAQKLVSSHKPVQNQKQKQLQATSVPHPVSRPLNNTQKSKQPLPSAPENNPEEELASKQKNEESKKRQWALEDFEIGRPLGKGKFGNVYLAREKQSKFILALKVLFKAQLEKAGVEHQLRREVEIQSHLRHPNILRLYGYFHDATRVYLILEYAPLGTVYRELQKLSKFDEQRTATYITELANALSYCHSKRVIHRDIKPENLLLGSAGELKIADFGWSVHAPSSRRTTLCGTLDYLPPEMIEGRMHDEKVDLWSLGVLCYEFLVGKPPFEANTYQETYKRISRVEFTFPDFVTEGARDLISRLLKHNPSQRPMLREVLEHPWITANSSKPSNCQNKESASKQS
measured_attribute: pIC50
pIC50 here: minus log base 10 of the concentration, concentration in moles per litre.

Form field pIC50, entry CCCCC(C)C(=O)Nc1ccc2[nH]c3c(=O)[nH]cc(CC(=O)NC)c3c2c1 (stereo not shown) [Compound XIIIh] : 7.29

###

Target: RET (Homo sapiens)
Sequence (P07949 29-1114, species assumed): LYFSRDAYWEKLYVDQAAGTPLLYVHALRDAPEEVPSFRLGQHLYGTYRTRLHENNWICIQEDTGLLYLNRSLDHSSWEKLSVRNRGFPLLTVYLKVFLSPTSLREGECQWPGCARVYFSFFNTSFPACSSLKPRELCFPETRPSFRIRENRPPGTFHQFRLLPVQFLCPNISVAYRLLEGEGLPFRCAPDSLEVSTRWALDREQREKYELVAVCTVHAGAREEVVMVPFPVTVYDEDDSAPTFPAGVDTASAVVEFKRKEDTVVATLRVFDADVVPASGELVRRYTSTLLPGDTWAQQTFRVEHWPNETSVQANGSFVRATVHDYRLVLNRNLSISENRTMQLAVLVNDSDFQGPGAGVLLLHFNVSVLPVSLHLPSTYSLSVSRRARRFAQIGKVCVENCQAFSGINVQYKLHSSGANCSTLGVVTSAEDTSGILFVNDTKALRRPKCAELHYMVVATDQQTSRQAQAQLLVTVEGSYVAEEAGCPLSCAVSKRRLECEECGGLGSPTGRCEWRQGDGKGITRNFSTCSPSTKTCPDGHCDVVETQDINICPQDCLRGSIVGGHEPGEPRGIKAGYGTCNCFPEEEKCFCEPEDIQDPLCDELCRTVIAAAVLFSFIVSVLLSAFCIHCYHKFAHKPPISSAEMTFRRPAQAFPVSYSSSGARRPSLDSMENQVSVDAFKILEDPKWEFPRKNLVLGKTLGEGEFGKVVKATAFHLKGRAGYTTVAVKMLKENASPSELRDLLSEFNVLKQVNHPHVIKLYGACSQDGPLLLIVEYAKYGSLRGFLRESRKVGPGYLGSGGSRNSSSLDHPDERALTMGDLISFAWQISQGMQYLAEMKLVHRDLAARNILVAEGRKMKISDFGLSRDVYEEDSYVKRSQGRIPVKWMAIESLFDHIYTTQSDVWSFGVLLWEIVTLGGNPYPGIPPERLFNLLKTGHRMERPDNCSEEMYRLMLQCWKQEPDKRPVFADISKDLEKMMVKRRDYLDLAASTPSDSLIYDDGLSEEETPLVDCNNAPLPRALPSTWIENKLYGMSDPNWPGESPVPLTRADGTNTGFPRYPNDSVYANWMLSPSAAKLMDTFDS
measured_attribute: IC50 (µM)
// units = µM; emit number, no label

# molecule CCCCC(C)C(=O)Nc1ccc2[nH]c3c(=O)[nH]cc(CC(=O)NC)c3c2c1 (stereo not shown) ; its IC50 = 1.08
